experiment: Pharmacokinetic properties in rats; assay type: in vivo; settings: male, SD, plasma; rat, PO 50 mg/kg; read-out: F (oral bioavailability)
outcome.measure: bioavailability (%)
Response body: numeric value in %, unit text excluded.

Reported bioavailability of Cc1cc(Nc2ncnn3ccc(CN4CCC(N)CC4)c23)ccc1Oc1ccn2ncnc2c1 [Example 4] : 49.6

---

Measured pIC50 (HER4 (ErbB4) (Homo sapiens (Human), UniProt Q15303))
A value of pIC50 is the negative decimal logarithm of a concentration given in moles per litre.

Would you please look over these solved cases?
molecule	pIC50
Cc1cc(Nc2ncnn3ccc(CN4CC[C@H](N)[C@@H](F)C4)c23)ccc1Oc1ccn2ncnc2c1 [Example 23]	7.39
CO[C@H]1CN(Cc2ccn3ncnc(Nc4ccc(Oc5ccn6ncnc6c5)c(C)c4)c23)CC[C@@H]1N [Example 25]	6.43
Cc1cc(Nc2ncnn3ccc(CN4[C@@H]5CC[C@H]4C[C@H](O)C5)c23)ccc1Oc1ccn2ncnc2c1 [Example 6]	6.82
Cc1cc(Nc2ncnn3ccc(CN4[C@@H]5CC[C@H]4C[C@H](N)C5)c23)ccc1Oc1ccn2ncnc2c1 [Example 8]	6.74
COCC1(N)CCN(Cc2ccn3ncnc(Nc4ccc(Oc5ccn6ncnc6c5)c(C)c4)c23)CC1 [Example 20]	6.64

Moving on to another molecule below.
Query Cc1cc(Nc2ncnn3ccc(CN4CCC(N)CC4)c23)ccc1Oc1ccn2ncnc2c1 [Example 4] on HER4 (ErbB4) (Homo sapiens (Human), UniProt Q15303); pIC50 returned: 6.81

---

target: HER1 (ErbB1) (Homo sapiens (Human), UniProt P00533)
Sequence (P00533 25-1210): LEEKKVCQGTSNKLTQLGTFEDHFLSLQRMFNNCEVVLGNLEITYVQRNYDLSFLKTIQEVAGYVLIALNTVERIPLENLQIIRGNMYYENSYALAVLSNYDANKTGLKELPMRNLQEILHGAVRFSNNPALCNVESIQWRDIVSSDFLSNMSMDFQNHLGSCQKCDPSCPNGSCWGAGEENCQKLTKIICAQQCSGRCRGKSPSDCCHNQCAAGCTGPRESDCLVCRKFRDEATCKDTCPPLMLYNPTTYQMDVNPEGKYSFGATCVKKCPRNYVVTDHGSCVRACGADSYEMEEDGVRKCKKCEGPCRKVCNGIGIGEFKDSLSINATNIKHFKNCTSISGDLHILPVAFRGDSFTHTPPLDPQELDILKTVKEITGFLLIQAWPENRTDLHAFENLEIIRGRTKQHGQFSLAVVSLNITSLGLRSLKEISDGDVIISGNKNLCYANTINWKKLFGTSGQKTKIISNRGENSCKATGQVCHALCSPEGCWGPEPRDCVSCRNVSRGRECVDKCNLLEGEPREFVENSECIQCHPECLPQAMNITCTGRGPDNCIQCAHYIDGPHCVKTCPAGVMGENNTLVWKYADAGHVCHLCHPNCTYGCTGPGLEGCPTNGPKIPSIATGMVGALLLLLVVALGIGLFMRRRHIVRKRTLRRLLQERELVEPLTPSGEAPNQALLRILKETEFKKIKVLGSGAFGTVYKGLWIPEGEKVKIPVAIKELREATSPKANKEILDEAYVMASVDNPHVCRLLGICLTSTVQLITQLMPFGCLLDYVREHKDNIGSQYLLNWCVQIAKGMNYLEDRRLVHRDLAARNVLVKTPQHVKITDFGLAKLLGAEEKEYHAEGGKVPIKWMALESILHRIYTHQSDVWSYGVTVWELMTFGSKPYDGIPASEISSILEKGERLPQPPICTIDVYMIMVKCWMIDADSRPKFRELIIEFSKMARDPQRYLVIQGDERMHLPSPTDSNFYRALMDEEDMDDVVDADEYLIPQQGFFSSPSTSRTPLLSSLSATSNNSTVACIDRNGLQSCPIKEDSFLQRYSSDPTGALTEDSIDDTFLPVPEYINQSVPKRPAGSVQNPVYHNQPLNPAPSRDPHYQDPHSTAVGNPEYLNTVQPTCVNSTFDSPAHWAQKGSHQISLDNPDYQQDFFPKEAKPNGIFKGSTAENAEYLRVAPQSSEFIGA
Measured log10 IC50 of individual entries
The common logarithm of IC50 in µM is what is listed.

Would you please look over these solved cases?
molecule	log10 IC50
Cc1c(Oc2ccn3ncnc3c2)ccc(Nc2ncnn3ccc(CN4CCC(N)CC4)c23)c1F	-0.18
Cc1cc(Nc2ncnn3ccc(CN4[C@@H]5CC[C@H]4C[C@H](N)C5)c23)ccc1Oc1ccn2ncnc2c1	-0.41
Cc1cc(Nc2ncnn3ccc(CN4CC[C@H](N)[C@@H](F)C4)c23)ccc1Oc1ccn2ncnc2c1 [Example 21]	-0.04
CO[C@H]1CN(Cc2ccn3ncnc(Nc4ccc(Oc5ccn6ncnc6c5)c(C)c4)c23)CC[C@@H]1N	-0.68
Cc1cc(Nc2ncnn3ccc(CN4[C@@H]5CC[C@H]4C[C@H](O)C5)c23)ccc1Oc1ccn2ncnc2c1	-0.13

Reported log10 IC50 of Cc1cc(Nc2ncnn3ccc(CN4CC[C@H](N)[C@@H](F)C4)c23)ccc1Oc1ccn2ncnc2c1 [Example 23] : -1.21

Reported log10 IC50 of `Cc1cc(Nc2ncnn3ccc(CN4CCC(N)CC4)c23)ccc1Oc1ccn2ncnc2c1` : -0.79

---

assay: Pharmacokinetic properties in rats; type: in vivo; conditions: male, SD; rat plasma, PO 50 mg/kg
outcome.measure: Cmax

Reported Cmax of `Cc1cc(Nc2ncnn3ccc(CN4CCC(N)CC4)c23)ccc1Oc1ccn2ncnc2c1` : 3.63 µM

---

assay: Concentration of Example 4 in plasma, tumor tissue and brain tissue (NCI-N87 model, day 21); format: in vivo, BALB/c nude mice; settings: BALB/c nude, mouse, plasma, 100 mg/kg; day 21, 0.5 h after last administration; read-out: Drug concentration, plasma
outcome.measure: concentration at 0.5 h

Reported concentration at 0.5 h of `Cc1cc(Nc2ncnn3ccc(CN4CCC(N)CC4)c23)ccc1Oc1ccn2ncnc2c1` : 8.6 µM

// data source = patent US12030897B2
